Where do the numbers come from? From ChEMBL document CHEMBL3875216.

System: Pseudomonas aeruginosa PA14
experiment notes: Inhibition of quorum sensing-regulated pyocyanin production in Pseudomonas aeruginosa PA14 at 2 mM after 24 hrs relative to control
I'd appreciate it if you could supply inhibition values for the items below.
Answers are plain numbers, in %.

Sample answers from the record:
structure_string=CCCC(=O)N[C@H]1[C@H](OC(C)=O)O[C@H](COC(C)=O)[C@@H](OC(C)=O)[C@@H]1OC(C)=O measured_attribute=inhibition result=1.5
structure_string=O=C(Cc1ccc(Cl)cc1)N[C@@H]1[C@@H](O)[C@H](O)[C@@H](CO)O[C@H]1O measured_attribute=inhibition result=11.9
structure_string=CCCCCCCCCC(=O)N[C@@H]1[C@@H](O)[C@H](O)[C@@H](CO)O[C@H]1O measured_attribute=inhibition result=13.3

Parameter requested: inhibition. Apply to each item below.
1. CC(=O)OC[C@H]1O[C@@H](OC(C)=O)[C@H](NC(=O)Cc2c[nH]c3ccccc23)[C@@H](OC(C)=O)[C@@H]1OC(C)=O
2. CC(=O)OC[C@H]1O[C@@H](OC(C)=O)[C@H](NC(=O)Cc2ccc(Br)cc2)[C@@H](OC(C)=O)[C@@H]1OC(C)=O
3. CCCCCCCCCCCC(=O)N[C@H]1[C@H](OC(C)=O)O[C@H](COC(C)=O)[C@@H](OC(C)=O)[C@@H]1OC(C)=O
4. COc1ccc(CC(=O)N[C@H]2[C@H](OC(C)=O)O[C@H](COC(C)=O)[C@@H](OC(C)=O)[C@@H]2OC(C)=O)cc1

Completion:
1.5
0.8
19.7
0.4
